assay: AUC in rat at 5 mg/kg, po co-administered with 5 mg/kg of CYP3A4 inhibitor ritonavir; type: ADME, organism-based; conditions: plasma
For each record, write down the corresponding AUC.
Could you write the number and then its unit?

Lab note: COC(=O)N[C@H](C(=O)N[C@@H](Cc1ccccc1)C[C@H](O)[C@H](Cc1ccc(-c2ccc(C(C)=O)cc2)cc1)NC(=O)[C@@H](NC(=O)OC)C(C)(C)C)C(C)(C)C gave AUC of 220 ng·h/mL

Note to self: AUC recorded for COC(=O)N[C@H](C(=O)N[C@@H](Cc1ccccc1)C[C@H](O)[C@H](Cc1ccc(-c2ccccn2)cc1)NC(=O)[C@@H](NC(=O)OC)C(C)(C)C)C(C)(C)C was 4880 ng·h/mL

Notebook: COC(=O)N[C@H](C(=O)N[C@@H](Cc1ccccc1)C[C@H](O)[C@H](Cc1ccc(-c2ccc(CO)cc2)cc1)NC(=O)[C@@H](NC(=O)OC)C(C)(C)C)C(C)(C)C , AUC read as 10 ng·h/mL

Value of measured AUC for the entry COC(=O)N[C@H](C(=O)N[C@@H](Cc1ccccc1)C[C@H](O)[C@H](Cc1ccc(-c2ccc(OC)cc2)cc1)NC(=O)[C@@H](NC(=O)OC)C(C)(C)C)C(C)(C)C : 270 ng·h/mL
